Entries and their measured EC50 follow.
Target: Metabotropic glutamate receptor 7 (Rattus norvegicus, UniProt P35400)
Sequence (P35400 whole entry): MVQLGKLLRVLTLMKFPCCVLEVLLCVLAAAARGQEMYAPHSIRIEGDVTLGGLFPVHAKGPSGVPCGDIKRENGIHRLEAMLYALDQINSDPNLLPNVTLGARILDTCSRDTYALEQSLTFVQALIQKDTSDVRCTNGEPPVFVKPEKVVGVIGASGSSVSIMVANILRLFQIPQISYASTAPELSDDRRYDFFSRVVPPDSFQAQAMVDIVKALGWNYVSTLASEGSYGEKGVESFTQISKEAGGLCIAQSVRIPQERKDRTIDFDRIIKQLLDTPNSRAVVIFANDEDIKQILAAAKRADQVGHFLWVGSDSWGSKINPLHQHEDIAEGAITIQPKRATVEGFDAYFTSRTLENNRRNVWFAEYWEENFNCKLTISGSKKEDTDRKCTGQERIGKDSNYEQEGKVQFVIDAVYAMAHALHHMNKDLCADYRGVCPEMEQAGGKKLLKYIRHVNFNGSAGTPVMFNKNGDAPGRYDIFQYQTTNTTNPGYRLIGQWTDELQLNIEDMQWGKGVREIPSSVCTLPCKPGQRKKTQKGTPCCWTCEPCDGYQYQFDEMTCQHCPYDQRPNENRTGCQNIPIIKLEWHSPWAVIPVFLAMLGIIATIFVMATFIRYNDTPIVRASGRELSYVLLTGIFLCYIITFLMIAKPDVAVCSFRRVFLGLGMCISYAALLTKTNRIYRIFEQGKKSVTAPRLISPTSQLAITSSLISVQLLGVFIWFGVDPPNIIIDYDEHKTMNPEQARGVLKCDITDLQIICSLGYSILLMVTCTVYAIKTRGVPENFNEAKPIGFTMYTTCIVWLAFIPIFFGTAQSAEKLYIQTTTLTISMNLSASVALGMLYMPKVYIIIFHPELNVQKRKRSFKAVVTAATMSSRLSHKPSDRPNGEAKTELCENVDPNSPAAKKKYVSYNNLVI
Experiment: Effect on Metabotropic glutamate receptor 7
Answer with a number only, understood to be in mM.

Note to self: EC50 of N[C@H](CCC(=O)O)C(=O)O [D-GLUTAMATE] with Metabotropic glutamate receptor 7 (Rattus norvegicus, UniProt P35400) was 5.4

Reported EC50 (Metabotropic glutamate receptor 7 (Rattus norvegicus, UniProt P35400)) for entry "N[C@@H](CCP(=O)(O)O)C(=O)O" is 0.252

---

Recorded measurements of pEC50, one per entry
Target: Metabotropic glutamate receptor 3 (Rattus norvegicus)
Experiment: Effect on Metabotropic glutamate receptor 3
pEC50: −log10 of the molar value.

These solved cases illustrate the format of a correct answer.
COMPOUND | MEASURED_PROPERTY | RESULT
N[C@H](CCC(=O)O)C(=O)O [D-GLUTAMATE] | pEC50 | 5.05
Cc1onc(O)c1CC[C@H](N)C(=O)O | pEC50 | < 3.00

Moving on to the next compound.
Metabotropic glutamate receptor 3 (Rattus norvegicus) pEC50 of "Cc1o[nH]c(=O)c1CC[C@@H](N)C(=O)O" is < 3.00

---

Molecular target: UniProt:P31421
Sequence (P31421 whole entry): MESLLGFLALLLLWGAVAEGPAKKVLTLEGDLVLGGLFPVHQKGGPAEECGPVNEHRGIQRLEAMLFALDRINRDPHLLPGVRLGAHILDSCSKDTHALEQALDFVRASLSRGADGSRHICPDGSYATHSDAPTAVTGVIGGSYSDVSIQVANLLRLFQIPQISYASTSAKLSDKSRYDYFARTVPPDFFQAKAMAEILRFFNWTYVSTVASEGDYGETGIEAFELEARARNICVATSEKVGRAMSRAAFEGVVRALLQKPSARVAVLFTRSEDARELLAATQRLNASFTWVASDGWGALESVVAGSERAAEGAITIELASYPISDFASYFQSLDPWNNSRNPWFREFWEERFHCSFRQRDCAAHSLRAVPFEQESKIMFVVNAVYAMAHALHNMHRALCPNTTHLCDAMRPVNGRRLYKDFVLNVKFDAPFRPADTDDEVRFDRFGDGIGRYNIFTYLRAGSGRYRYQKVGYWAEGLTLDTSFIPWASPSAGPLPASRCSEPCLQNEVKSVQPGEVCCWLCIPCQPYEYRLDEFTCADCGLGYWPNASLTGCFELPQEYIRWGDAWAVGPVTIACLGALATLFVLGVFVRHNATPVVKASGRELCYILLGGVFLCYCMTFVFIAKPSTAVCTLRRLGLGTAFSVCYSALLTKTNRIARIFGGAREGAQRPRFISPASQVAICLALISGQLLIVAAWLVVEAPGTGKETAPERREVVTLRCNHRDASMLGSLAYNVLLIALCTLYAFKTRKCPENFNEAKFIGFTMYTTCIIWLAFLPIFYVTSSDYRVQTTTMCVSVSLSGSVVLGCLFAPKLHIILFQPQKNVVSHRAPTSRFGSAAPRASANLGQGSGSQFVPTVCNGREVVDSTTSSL
Assay: Effect on Metabotropic glutamate receptor 2
pEC50: −log10 of the molar value.
MEASURED_PROPERTY: pEC50

COMPOUND | RESULT
Cc1onc(O)c1CC[C@H](N)C(=O)O | < 3.00
Cc1onc(O)c1CCC(N)C(=O)O (stereo unspecified) | < 3.00
Cc1o[nH]c(=O)c1CC[C@@H](N)C(=O)O | < 3.00
N[C@@H](CCCC(=O)O)C(=O)O [(S)-2-AMINOADIPIC ACID] | 4.46

Note to self: pEC50 recorded for "N[C@H](CCCC(=O)O)C(=O)O" was < 3.00

// sample "N[C@@H](CCP(=O)(O)O)C(=O)O" , its pEC50 was 3.00

---

Molecular target: Metabotropic glutamate receptor 6 (Rattus norvegicus, UniProt P35349)
Sequence (P35349 whole entry): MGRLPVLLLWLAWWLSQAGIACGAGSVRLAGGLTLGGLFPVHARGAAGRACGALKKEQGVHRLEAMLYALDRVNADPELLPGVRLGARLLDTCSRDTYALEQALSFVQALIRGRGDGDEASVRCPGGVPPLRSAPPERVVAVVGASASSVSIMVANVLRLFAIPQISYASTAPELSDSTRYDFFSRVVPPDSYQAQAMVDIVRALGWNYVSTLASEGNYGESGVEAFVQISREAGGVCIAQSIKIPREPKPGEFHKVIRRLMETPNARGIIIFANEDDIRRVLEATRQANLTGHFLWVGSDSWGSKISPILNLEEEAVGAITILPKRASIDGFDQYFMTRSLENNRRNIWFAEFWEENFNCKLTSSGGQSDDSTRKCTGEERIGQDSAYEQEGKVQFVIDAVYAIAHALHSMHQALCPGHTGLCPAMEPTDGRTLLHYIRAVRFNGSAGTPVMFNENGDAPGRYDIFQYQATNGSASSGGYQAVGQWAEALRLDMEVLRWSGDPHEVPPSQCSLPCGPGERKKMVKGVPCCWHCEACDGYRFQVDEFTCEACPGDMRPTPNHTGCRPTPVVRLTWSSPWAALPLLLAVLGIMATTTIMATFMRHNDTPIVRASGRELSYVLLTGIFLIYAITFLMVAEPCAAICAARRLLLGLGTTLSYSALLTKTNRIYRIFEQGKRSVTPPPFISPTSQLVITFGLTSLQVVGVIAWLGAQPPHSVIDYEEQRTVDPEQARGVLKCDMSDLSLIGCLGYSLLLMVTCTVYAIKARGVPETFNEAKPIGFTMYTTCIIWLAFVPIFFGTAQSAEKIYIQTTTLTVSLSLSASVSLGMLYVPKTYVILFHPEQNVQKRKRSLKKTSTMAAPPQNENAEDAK
Experiment: Effect on Metabotropic glutamate receptor 6
A collection of molecules and their measured EC50
Give just the number in µM; leave the unit off.

MOLECULE | ASSAYED_TARGET | UNITS_OF_MEASURE | EC50
N[C@@H](CCP(=O)(O)O)C(=O)O | Metabotropic glutamate receptor 6 (Rattus norvegicus, UniProt P35349) | µM | 0.57
N[C@@H](CCCC(=O)O)C(=O)O [(S)-2-AMINOADIPIC ACID] | Metabotropic glutamate receptor 6 (Rattus norvegicus, UniProt P35349) | µM | 140
Cc1onc(O)c1CC[C@H](N)C(=O)O | Metabotropic glutamate receptor 6 (Rattus norvegicus, UniProt P35349) | µM | 58

For the next question, use this molecule.
Record Cc1onc(O)c1CCC(N)C(=O)O (stereo unspecified) has Metabotropic glutamate receptor 6 (Rattus norvegicus, UniProt P35349) EC50 equal to 82

---

Molecular target: Metabotropic glutamate receptor 5 (Rattus norvegicus, UniProt P31424)
Assay: Effect on Metabotropic glutamate receptor 5
pEC50: −log10 of the molar value.
MEASURED_PROPERTY: pEC50

// solved cases for pEC50 follow
TEST_SMILES | pEC50
Cc1o[nH]c(=O)c1CC[C@@H](N)C(=O)O | < 3.00
Cc1onc(O)c1CC[C@H](N)C(=O)O | < 3.00

response.value for "N[C@@H](CCP(=O)(O)O)C(=O)O" (field: pEC50) = < 3.00

---

Target: Glutamate NMDA receptor
Experiment: Inhibitory activity against N-methyl-D-aspartate glutamate receptor
MEASURED_PROPERTY: IC50 (µM)
Quick reminder: number only, in µM, skip the unit.

Consider "Cc1o[nH]c(=O)c1CC[C@@H](N)C(=O)O" . Its measured IC50 is 131

---

molecules and their reported pEC50
Biological target: Metabotropic glutamate receptor 1 (Rattus norvegicus, UniProt P23385)
Sequence (P23385 whole entry): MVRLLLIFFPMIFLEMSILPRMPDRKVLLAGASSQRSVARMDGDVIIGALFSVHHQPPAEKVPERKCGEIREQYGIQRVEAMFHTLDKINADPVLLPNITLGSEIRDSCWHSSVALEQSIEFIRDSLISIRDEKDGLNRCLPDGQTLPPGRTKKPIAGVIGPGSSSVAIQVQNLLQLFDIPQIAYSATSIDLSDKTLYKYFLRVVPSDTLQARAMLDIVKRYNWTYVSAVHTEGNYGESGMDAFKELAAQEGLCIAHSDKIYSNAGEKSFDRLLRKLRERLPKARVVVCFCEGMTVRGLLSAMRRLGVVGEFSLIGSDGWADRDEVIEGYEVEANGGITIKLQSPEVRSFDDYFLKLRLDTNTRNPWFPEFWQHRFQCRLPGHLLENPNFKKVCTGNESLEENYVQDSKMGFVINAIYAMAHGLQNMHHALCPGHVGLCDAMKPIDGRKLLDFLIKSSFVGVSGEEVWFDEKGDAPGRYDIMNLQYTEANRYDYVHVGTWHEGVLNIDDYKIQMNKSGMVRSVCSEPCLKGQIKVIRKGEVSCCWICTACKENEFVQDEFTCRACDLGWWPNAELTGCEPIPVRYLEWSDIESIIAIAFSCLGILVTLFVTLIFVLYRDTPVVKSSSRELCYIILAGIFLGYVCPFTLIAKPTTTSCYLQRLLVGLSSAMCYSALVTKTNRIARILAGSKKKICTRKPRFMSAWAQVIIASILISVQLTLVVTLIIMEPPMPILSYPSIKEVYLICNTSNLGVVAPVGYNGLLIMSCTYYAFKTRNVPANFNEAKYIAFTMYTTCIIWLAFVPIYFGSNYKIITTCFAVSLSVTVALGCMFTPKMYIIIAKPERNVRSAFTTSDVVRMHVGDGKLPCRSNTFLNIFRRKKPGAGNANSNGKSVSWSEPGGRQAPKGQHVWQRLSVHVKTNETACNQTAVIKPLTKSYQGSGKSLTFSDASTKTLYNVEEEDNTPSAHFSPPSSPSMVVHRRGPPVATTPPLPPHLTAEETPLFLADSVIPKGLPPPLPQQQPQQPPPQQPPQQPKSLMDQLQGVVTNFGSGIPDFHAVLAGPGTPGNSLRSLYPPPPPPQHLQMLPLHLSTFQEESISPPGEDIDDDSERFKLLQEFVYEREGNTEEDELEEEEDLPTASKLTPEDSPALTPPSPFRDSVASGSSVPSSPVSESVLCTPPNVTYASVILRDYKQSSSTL
Experiment: Effect on Metabotropic glutamate receptor 1
pEC50: −log10 of the molar value.

Illustrative cases are given below, each with its answer.
MOLECULE | MEASURED_PROPERTY | RESULT
N[C@@H](CCP(=O)(O)O)C(=O)O | pEC50 | 3.00
Cc1onc(O)c1CC[C@H](N)C(=O)O | pEC50 | < 3.00
Cc1onc(O)c1CCC(N)C(=O)O (stereo unspecified) | pEC50 | < 3.00
N[C@@H](CCCC(=O)O)C(=O)O [(S)-2-AMINOADIPIC ACID] | pEC50 | < 3.00
Cc1o[nH]c(=O)c1CC[C@@H](N)C(=O)O | pEC50 | < 3.00

Now look at this entry.
The value of pEC50 measured for the molecule "N[C@H](CCCC(=O)O)C(=O)O" turned out to be < 3.00

---

Molecular target: Metabotropic glutamate receptor 4 (Rattus norvegicus)
Sequence (P31423 whole entry): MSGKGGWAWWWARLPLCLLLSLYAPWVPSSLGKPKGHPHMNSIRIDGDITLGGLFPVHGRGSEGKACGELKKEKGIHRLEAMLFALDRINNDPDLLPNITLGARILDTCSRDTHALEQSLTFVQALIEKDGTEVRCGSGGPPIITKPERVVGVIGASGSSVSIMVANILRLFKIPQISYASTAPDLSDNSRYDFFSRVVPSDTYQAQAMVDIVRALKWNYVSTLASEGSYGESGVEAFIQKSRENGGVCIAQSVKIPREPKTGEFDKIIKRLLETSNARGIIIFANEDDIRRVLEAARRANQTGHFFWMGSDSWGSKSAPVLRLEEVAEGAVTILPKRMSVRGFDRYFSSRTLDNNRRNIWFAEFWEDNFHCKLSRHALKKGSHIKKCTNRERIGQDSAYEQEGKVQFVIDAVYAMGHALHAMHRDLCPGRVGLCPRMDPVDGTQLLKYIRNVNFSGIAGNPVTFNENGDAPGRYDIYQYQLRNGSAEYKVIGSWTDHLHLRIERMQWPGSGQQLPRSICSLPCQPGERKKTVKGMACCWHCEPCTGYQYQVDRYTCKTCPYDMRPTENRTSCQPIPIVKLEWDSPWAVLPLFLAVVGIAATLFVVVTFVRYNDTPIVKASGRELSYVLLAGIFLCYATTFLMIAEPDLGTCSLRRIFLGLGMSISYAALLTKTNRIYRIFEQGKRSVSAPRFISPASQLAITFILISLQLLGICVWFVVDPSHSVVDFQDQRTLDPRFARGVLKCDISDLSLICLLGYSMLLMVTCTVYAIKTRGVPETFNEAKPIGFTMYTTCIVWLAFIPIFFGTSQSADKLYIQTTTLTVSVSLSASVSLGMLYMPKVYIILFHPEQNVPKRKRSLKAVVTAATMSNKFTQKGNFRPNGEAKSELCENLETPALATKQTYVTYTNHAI
Assay: Effect on Metabotropic glutamate receptor 4
pEC50: −log10 of the molar value.
MEASURED_PROPERTY: pEC50

Field: example entries. Status: answers known.
COMPOUND | ASSAYED_TARGET | RESULT
N[C@H](CCC(=O)O)C(=O)O [D-GLUTAMATE] | Metabotropic glutamate receptor 4 (Rattus norvegicus) | 4.92
Cc1onc(O)c1CCC(N)C(=O)O (stereo unspecified) | Metabotropic glutamate receptor 4 (Rattus norvegicus) | < 2.52
Cc1o[nH]c(=O)c1CC[C@@H](N)C(=O)O | Metabotropic glutamate receptor 4 (Rattus norvegicus) | < 3.00
N[C@@H](CCCC(=O)O)C(=O)O [(S)-2-AMINOADIPIC ACID] | Metabotropic glutamate receptor 4 (Rattus norvegicus) | < 2.52
Cc1onc(O)c1CC[C@H](N)C(=O)O | Metabotropic glutamate receptor 4 (Rattus norvegicus) | < 3.00

get_value(item= "N[C@@H](CCP(=O)(O)O)C(=O)O" , readout=pEC50) returns 6.04
